Data provenance is ChEMBL document CHEMBL5252668.

pIC50: −log10 of the molar value.
GTPase KRas (Homo sapiens, UniProt P01116, G12D) pIC50 data
Sequence (P01116 whole entry G12D): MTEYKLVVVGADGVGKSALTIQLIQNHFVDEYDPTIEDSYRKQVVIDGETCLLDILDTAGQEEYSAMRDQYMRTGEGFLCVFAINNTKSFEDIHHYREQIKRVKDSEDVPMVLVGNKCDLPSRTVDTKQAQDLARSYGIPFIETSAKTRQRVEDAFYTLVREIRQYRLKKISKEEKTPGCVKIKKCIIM
readout label: pIC50

molecule	pIC50
Oc1cc(-c2ncc3c(N4CCCC5(CCO5)C4)nc(OC[C@@]45CCCN4C[C@H](F)C5)nc3c2F)c2c(F)c(F)ccc2c1 (stereo partly drawn)	8.70

I: CCc1c(F)ccc2cc(O)cc(-c3ncc4c(N5CC(O)CC6(CC6)C5)nc(OC[C@@]56CCCN5C[C@H](F)C6)nc4c3F)c12 (stereo partly drawn)
II: Oc1cc(-c2ncc3c(N4CCC[C@]5(CCO5)C4)nc(OC[C@@]45CCCN4C[C@H](F)C5)nc3c2F)c2c(Cl)c(F)ccc2c1
Compare pIC50: is it lower for I or for II ? Use the label to indicate which entry you chose. I
(I: 8.70, II: 9.00)

---

Recorded below: IC50, system GTPase KRas (Homo sapiens, UniProt P01116, G12D).
readout label: IC50 (µM)

Observe how each entry below is paired with its result.
compound	IC50 [µM]
CCc1c(F)ccc2cc(O)cc(-c3ncc4c(N5CCCC6(CCO6)C5)nc(OC[C@@]56CCCN5C[C@H](F)C6)nc4c3C)c12 (some centres undefined)	0.007
CCc1c(F)ccc2cc(O)cc(-c3ncc4c(N5CC(O)CC6(CC6)C5)nc(OC[C@@]56CCCN5C[C@H](F)C6)nc4c3F)c12 (some centres undefined)	0.034

1: CCc1c(F)ccc2cc(O)cc(-c3ncc4c(N5CCCC6(CC(=O)N6)C5)nc(OC[C@@]56CCCN5C[C@H](F)C6)nc4c3F)c12 (some centres undefined)
2: Oc1cc(Cl)c(C2CC2)c(-c2ncc3c(N4CCCC5(CCO5)C4)nc(OC[C@@]45CCCN4C[C@H](F)C5)nc3c2F)c1 (some centres undefined)
Higher IC50: 1 or 2 ? Selection: enter the item's label. 2
(2: 0.066 µM, 1: 0.044 µM)
